# credit: patent US8697911B2

Quick reference for pIC50 among some compounds
# tested on: ROCKII (1-543) (Homo sapiens (Human), UniProt O75116)
# Sequence (O75116 1-543, species assumed): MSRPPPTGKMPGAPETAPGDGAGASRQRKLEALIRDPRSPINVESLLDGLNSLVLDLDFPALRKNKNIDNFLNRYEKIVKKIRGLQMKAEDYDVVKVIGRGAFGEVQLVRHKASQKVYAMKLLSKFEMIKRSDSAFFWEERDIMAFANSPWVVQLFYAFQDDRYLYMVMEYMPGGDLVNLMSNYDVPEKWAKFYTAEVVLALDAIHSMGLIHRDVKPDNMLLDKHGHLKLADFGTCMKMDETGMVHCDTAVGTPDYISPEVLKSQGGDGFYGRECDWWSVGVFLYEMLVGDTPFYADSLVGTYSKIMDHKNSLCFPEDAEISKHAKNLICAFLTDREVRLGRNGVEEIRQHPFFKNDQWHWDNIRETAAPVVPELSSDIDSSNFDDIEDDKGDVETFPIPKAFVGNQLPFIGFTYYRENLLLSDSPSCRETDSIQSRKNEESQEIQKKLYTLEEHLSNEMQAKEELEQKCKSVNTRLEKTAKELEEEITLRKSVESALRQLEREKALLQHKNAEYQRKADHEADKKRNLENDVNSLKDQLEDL
# assay protocol: IMAP Assay (Assay 2)
# Type: biochemical
# recorded conditions: IMAP fluorescence polarization; 100 μM ATP, 1 nM kinase
A value of pIC50 is the negative decimal logarithm of a concentration given in moles per litre.

The following compounds have reported results that may help.
• CN1CCc2ccc(NC(=O)c3cccc(CNC(=O)c4ccc(-n5ccnc5)cc4)c3)cc2C1 = 8.00
• CN1CCc2nc(NC(=O)c3cccc(CNC(=O)c4nnn(-c5nonc5N)c4-c4ccccc4)c3)sc2C1 = 8.31
• O=C(NCc1cccc(C(=O)Nc2nc3c(s2)C[C@@H](N2CCOCC2)CC3)c1)c1cccc(-c2cn[nH]c2)c1 = 9.39
• Cc1nnnn1-c1ccc(C(=O)NCc2cccc(C(=O)Nc3nc4c(s3)C[C@@H](N3CCOCC3)CC4)c2)cc1 = 9.46

Recorded result, `CN1CCc2nc(NC(=O)c3cccc(CNC(=O)c4cc5cc(C#N)ccc5n4C)c3)sc2C1` , pIC50: 7.96

Recorded result, `CN1CCc2ccc(NC(=O)c3cccc(CNC(=O)c4ccc(-c5cc[nH]n5)cc4)c3)cc2C1` , pIC50: 7.33

Recorded result, `CN1CCc2ccc(NC(=O)c3cccc(CNC(=O)c4cc5ccc(C(N)=O)cc5n4C)c3)cc2C1` , pIC50: 9.59

Recorded result, `CN1CCc2ccc(NC(=O)c3cccc(CNC(=O)c4cn5cc(C(N)=O)ccc5n4)c3)cc2C1` , pIC50: 7.60

Recorded result, `N[C@H]1CCc2nc(NC(=O)c3cccc(CNC(=O)c4cccc(-c5cccnc5)c4)c3)sc2C1` , pIC50: 8.70

###

Quick reference for pIC50 among some compounds
# tested on: ROCKII (1-543) (Homo sapiens (Human))
# assay protocol: IMAP Assay (Assay 2)
# Type: biochemical
# recorded conditions: IMAP fluorescence polarization; 100 μM ATP, 1 nM kinase
# Description: This assay is performed using FAM S6 substrate peptide (Catalogue #R7184) and IMAP FP Screening Express Kit detection reagents from Molecular Devices (Sunnyvale, Calif.) in IMAP kinase reaction buffer (Tris-HCl, pH 7.2, 10 mM MgCl2, 0.05% NaN3, 0.1% phosphate-free BSA) containing 1 mM DTT. […] Where A, B, C, and D are fitted parameters (parameter B is fixed at zero POC), and x and y are the independent and dependent variables, respectively. The IC50 is determined as the inflection point parameter, C.
A value of pIC50 is the negative decimal logarithm of a concentration given in moles per litre.

- CN(C)[C@H]1CCc2nc(NC(=O)c3cccc(CNC(=O)c4ccc(-c5ccncc5)s4)c3)sc2C1: 9.57
- CN1CCc2ccc(NC(=O)c3cccc(CNC(=O)c4ccc5cc(O)ccc5c4)c3)cc2C1: 8.70
- Cc1nnnn1-c1ccc(C(=O)NCc2cccc(C(=O)Nc3nc4c(s3)C[C@@H](N)CC4)c2)cc1: 9.17

Turning now to a further compound:
Recorded result, `CN1CCc2ccc(NC(=O)c3cccc(CNC(=O)c4cn5ccc(C(N)=O)cc5n4)c3)cc2C1` , pIC50: 7.96

###

# tested on: ROCKII (1-543) (Homo sapiens (Human))
# assay protocol: IMAP Assay (Assay 2)
# Format: biochemical
# recorded conditions: IMAP fluorescence polarization; 100 μM ATP, 1 nM kinase
# Method: This assay is performed using FAM S6 substrate peptide (Catalogue #R7184) and IMAP FP Screening Express Kit detection reagents from Molecular Devices (Sunnyvale, Calif.) in IMAP kinase reaction buffer (Tris-HCl, pH 7.2, 10 mM MgCl2, 0.05% NaN3, 0.1% phosphate-free BSA) containing 1 mM DTT. […] Where A, B, C, and D are fitted parameters (parameter B is fixed at zero POC), and x and y are the independent and dependent variables, respectively. The IC50 is determined as the inflection point parameter, C.
readout label: IC50

• CN1CCc2ccc(NC(=O)c3cccc(CNC(=O)c4cc(-c5ccncc5)[nH]n4)c3)cc2C1 = 0.22 nM
• Cc1c(C(=O)NCc2cccc(C(=O)Nc3nc4c(s3)C[C@@H](N3CCOCC3)CC4)c2)nnn1-c1nonc1N = 0.57 nM

Turning now to a further compound:
Recorded result, `CN1CCc2nc(NC(=O)c3cccc(CNC(=O)c4ccc(-c5cnco5)s4)c3)sc2C1` , IC50: 0.45 nM
